Test: NCI Yeast Anticancer Drug Screen. Data for the mec2-1 strain (AID 157)
Settings: S. cerevisiae mec2-1 strain, at 5.0 µM (retest, dose inferred, filed as 0.5), active compounds read high
The panel holds about 79,000 compounds, 15% with a hit somewhere; the sample as a whole holds those more often. The source made the active and inactive calls. Rule as the data show it: active = growth inhibition above about 70%; inactive = the rest.
assayMetric: growth inhibition

Prompt: Return growth inhibition (reported value) for this compound: "Nc1c(N)c(Cl)c(Cl)c(Cl)c1Cl"
Completion: 58% (inactive)

Prompt: Using the record for "Cc1ccc2[nH]cc(CC(=O)O)c2c1" , state its measured growth inhibition.
Completion: 97% (active)

Prompt: Consider the compound CC1CC(C)(C)OB(OC(C)CC(C)(C)OB2OC(C)CC(C)(C)O2)O1 (stereo unspecified) and give its recorded growth inhibition.
Completion: -1% (inactive)

Prompt: Query growth inhibition for "COc1ccc(OC)c(Cc2cnc3nc(N)nc(N)c3c2C)c1"
Completion: 18% (inactive)

Prompt: Dear colleague, please send me the reported growth inhibition for "NC(=S)N/N=C\c1nccc2c(C(F)(F)F)cccc12" when you can.
Completion: 2% (inactive)

Prompt: Give me measured growth inhibition, please, for this compound: "O=C(C[P+](c1ccccc1)(c1ccccc1)c1ccccc1)c1ccccc1"
Completion: 9% (inactive)

---

Assay: NCI Yeast Anticancer Drug Screen. Data for the mec2-1 strain (AID 157)
Conditions: S. cerevisiae mec2-1 strain, at 50.0 µM (retest, dose inferred, filed as 5.0), active compounds read high
This is part of a sample that, as a whole, favours compounds with a hit. Of some 79,000 tested, about 15% had one in any assay.
Kindly return TRUE if reported growth inhibition is no lower than 90%; return FALSE if it is lower.

Prompt: Check this compound for growth inhibition at or above 90%: "CN=C(N)N/N=C(\c1ccccc1)c1ccc(Br)cc1"
Completion: FALSE

Prompt: Is growth inhibition at least 90%? Consider CCN1CCCC(Nc2cc(C)nc(/N=C(/N)Nc3ccc(Cl)c(Cl)c3)n2)C1 (centres undefined)
Completion: TRUE

Prompt: Could you verify whether the entry "Oc1ccc(/C=C/c2ccc(Cl)cc2)cc1" shows growth inhibition of no less than 90%?
Completion: TRUE

Prompt: In plain terms: is recorded growth inhibition at least 90% for OC(c1cc2ccc(C(F)(F)F)cc2c2cc(C(F)(F)F)ccc12)C1CCCCN1 (centres undefined) ?
Completion: TRUE

Prompt: Please indicate if the recorded growth inhibition for "NCCN1C(=O)CNC1=S" meets or exceeds 90%.
Completion: FALSE

Prompt: Is it the case that CC1(c2ccc(O)cc2)CCC(C(C)(C)c2ccc(O)cc2)CC1 (centres undefined) has growth inhibition reaching or exceeding 90%?
Completion: TRUE

Prompt: Answer whether growth inhibition of "CN(C)CCN(C)CC(C)(C)C(=O)/C=C/c1ccc(Cl)c(Cl)c1" is greater than or equal to 90%.
Completion: TRUE

Prompt: hey, is growth inhibition for this one >= 90%? "C1CCC(CCCc2nn[nH]n2)CC1"
Completion: FALSE

Prompt: For this compound, is measured growth inhibition 90% or higher? "COC(=O)c1ccc(=O)c2nc3/c(=C/O)c(O)cc(=O)c3[nH]c12"
Completion: TRUE

Prompt: Does the compound C=C(C)C1CC2(C)C(C)CC(O)CC2C(OC(=O)C=C(C)C)C1O (centres undefined) have recorded growth inhibition that is 90% or more?
Completion: FALSE

Prompt: Reported growth inhibition at or above 90%? "Cc1nn(CCO)c(C)c1N=[N+]([O-])c1c(C)nn(CCO)c1C"
Completion: TRUE

Prompt: Reported growth inhibition at or above 90%? "C(CCc1nn[nH]n1)CCC1CCCCC1"
Completion: TRUE

Prompt: Does the reported growth inhibition for "Cc1ccccc1NC(=O)Cc1csc2[n+]1C(=O)/C(=C/c1ccc([N+](=O)[O-])cc1)S2" fall at or above the 90% mark?
Completion: FALSE

Prompt: Hi, just wondering whether "CCN(CC)c1ccc(/C=C\C(=O)c2ccc(NC(C)=O)cc2)cc1" shows growth inhibition of 90% or higher.
Completion: FALSE

Prompt: Form field: growth inhibition at least 90%? Entry: "CC(=O)N1CC(=O)NC1=S"
Completion: FALSE

Prompt: Given "Oc1ccc(Cl)cc1C(c1cc(Cl)ccc1O)C(Cl)(Cl)Cl" , state whether its growth inhibition is at least 90%.
Completion: TRUE

Prompt: API: above_or_equal(metric=growth inhibition, cutoff=90%) for item "Cc1ccc(/C=N/Nc2cc(C)c3cccc(C)c3n2)s1"
Completion: TRUE

Prompt: # check: growth inhibition of "CN(C)c1ccc(SC#N)cc1" is greater than or equal to 90%
Completion: FALSE

Prompt: Assess whether reported growth inhibition for CC1(C)OCC(COC(c2ccccc2)(c2ccccc2)c2ccccc2)O1 (centres undefined) sits at 90% or higher.
Completion: FALSE

Prompt: Is reported growth inhibition greater than or equal to 90% here: "CC(=O)c1ccc2c(c1)sc1cc(C(C)=O)ccc12"
Completion: TRUE

Prompt: Has CCOc1ccc(C(CN2CCOCC2)C(C)=O)cc1OC (centres undefined) a recorded growth inhibition greater than or equal to 90%?
Completion: FALSE

Prompt: Quick check, growth inhibition >= 90%? "Nc1cc(-c2ccccc2)ccc1O"
Completion: FALSE

Prompt: Check this compound for growth inhibition at or above 90%: "O=C1/C(=C\c2ccc([N+](=O)[O-])cc2)CS(=O)(=O)C/C1=C/c1ccc([N+](=O)[O-])cc1"
Completion: TRUE

---

Experiment: NCI Yeast Anticancer Drug Screen. Data for the sgs1 mgt1 strain (AID 161);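 also: 0% = growth of cultures given vehicle only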
Details: S. cerevisiae sgs1 mgt1 strain, at 50.0 µM, active compounds read high
About 79,000 compounds went through this panel and 15% of them were active in at least one assay; those are over-represented in the sample as a whole.
assayMetric: growth inhibition (%)
Only the number, expressed in %, is required.

Prompt: Report growth inhibition, nothing else, for this molecule: Fc1cccc(F)c1C1SCc2nc3cc4ccccc4cc3n21 (stereo not given)
Completion: 78.5

Prompt: Tell me its growth inhibition given CCN1CCCC(Nc2cc(C)nc(/N=C(/N)Nc3ccc(Cl)c(Cl)c3)n2)C1 (stereo not given) as the entry.
Completion: 86.7

Prompt: Look up and state reported growth inhibition for "N=C(N)Sc1cccc[n+]1[O-]"
Completion: 98.2

Prompt: Please list growth inhibition recorded for the molecule "COc1cc(/C=C2\SC(=S)N(/C=C/c3nc4ccccc4[nH]c3=O)C2=O)cc(OC)c1OC"
Completion: 63.1

Prompt: For the molecule "Nc1cc(-c2ccccc2)ccc1O" , give its reported growth inhibition.
Completion: 93.6

Prompt: Report growth inhibition, nothing else, for this molecule: COc1cccc2c1C(=O)c1c(O)c3c(c(O)c1C2=O)C[C@@](O)(C(=O)CO)C[C@@H]3OC1CC(OC(C)=O)C(OC(C)=O)C(C)O1 (stereo not given in full)
Completion: 90

Prompt: Give recorded growth inhibition. CCCCC(C=O)(C=C=C(C)C)CC (stereo not given)
Completion: 61.3

Prompt: Name the recorded growth inhibition of the molecule listed here: "O=C1C(=O)c2cc([N+](=O)[O-])ccc2-c2ccccc21"
Completion: 96.2

Prompt: Given the molecule CCCCCCCCCCCC[n+]1ccccc1 (tested in a mixture with another compound) , write its reported growth inhibition.
Completion: 99.1

Prompt: Tell me measured growth inhibition for "CN(C)CCN(C)CC(C)(C)C(=O)/C=C/c1ccc(Cl)c(Cl)c1" please.
Completion: 56.2

---

Assay: NCI Yeast Anticancer Drug Screen. Data for the mlh1 rad18 strain (AID 175)
Settings: S. cerevisiae mlh1 rad18 strain growth inhibition; at 50.0 µM (retest, dose inferred, filed as 5.0); active compounds read high
The panel holds about 79,000 compounds, 15% with a hit somewhere; the sample as a whole holds those more often.
Consider the following molecules; for each one, report its growth inhibition.
Give the quantity in %, number only.

Prompt: Specify growth inhibition for COc1ccc2c(c1OC)OCC(CN(C)C)C2=O (centres undefined) and stop.
Completion: 98

Prompt: Item "CCCCCCCCCCCC1=NCCCN1CCCC" : provide growth inhibition
Completion: 99

Prompt: Return growth inhibition (reported value) for this molecule: "CC(C)(C)N/N=C(/Cc1nc2c3c(ccc2[nH]c1=O)C(=O)c1ccccc1C3=O)C(=O)NC1=C(Cl)C(=O)c2ccccc2C1=O"
Completion: 79

Prompt: Given the molecule "c1csc(-c2[nH]nc3c2CCc2ccccc2-3)c1" , write its reported growth inhibition.
Completion: 97

Prompt: Give growth inhibition for the following molecule: "CCCCN(CCCC)CCCCCCCCCCO"
Completion: -1

Prompt: Please give measured growth inhibition of the following entry: CCC[CH2][Sn]([CH2]CCC)([CH2]CCC)[O]C(=O)C(OC(C)=O)c1ccccc1 (centres undefined)
Completion: 100

Prompt: Return the recorded growth inhibition value; entry: "Oc1ccc2c(c1)CCc1ccccc1-2"
Completion: 98

Prompt: Kindly indicate its recorded growth inhibition. Item: CC(=O)C1Cc2ccccc2C1=O (centres undefined)
Completion: 90

Prompt: Please list growth inhibition recorded for the molecule "Nc1ccc(-c2ccc(N)c(S(=O)(=O)O)c2)cc1S(=O)(=O)O"
Completion: 6

Prompt: Specify growth inhibition for "O=C(CO)NCCO" and stop.
Completion: 2

Prompt: Provide measured growth inhibition value, entry: "Nc1nc(-c2ccccc2)nc(N)c1N=O"
Completion: 67

Prompt: Recall and state the measured growth inhibition for CCCCNC(=O)C(C)O (centres undefined) .
Completion: 8

Prompt: Report measured growth inhibition; entry is "COc1ccc(/C=C2/C(=O)ON=C2C)cc1"
Completion: 12

Prompt: Determine from records and report growth inhibition for "CCOC(=O)NC(/C=C/c1ccccc1)NC(=O)OCC"
Completion: -26
